System: DRAK1;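 further: KINOMEscan kinase panel screen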
Construct: gene STK17A
Settings: concentration: 1 μM, replicates: in singlicate; n = 1
reportedProperty: %Inh (%)

CCCNC(=O)Nc1ccc(Oc2ncnc3ccn(C)c23)cc1: 0
Cc1cccc(-c2cc(-c3c[nH]nc3-c3ccccn3)ccn2)c1: 0
Cc1nnc(-c2ccc(C)c(-c3ccc(C(=O)O)cc3)c2)o1: 0
O=C(NCCNc1ccnc(Nc2ccc(F)cc2)n1)Nc1ccc2c(c1)OCO2: 10
COc1cccc(C2=C(Nc3cccc(C(=O)O)c3)C(=O)NC2=O)c1: 0
O=C1NC(=O)C(c2ccccc2)=C1Nc1cccc(O)c1: 5
COc1cc(OC)cc(-c2cc3cnc(N)nc3nc2NC(=O)NC(C)(C)C)c1: 0
O=c1cc(N2CCOCC2)nc2n(Cc3ccc(F)c(Cl)c3)ccn12: 0
COc1ccc(-c2coc3ccc(-c4nnc(SCc5cccc(C#N)c5)o4)cc23)cc1: 2
